Tested on: B. subtilis
Experiment: microbe, parasite or virus in culture
Type: cell-based
Conditions: multiple values = two or more tests
measurementType: Minimal Inhibitory Concentration (MIC), B. subtilis

{"columns": ["molecule", "result"],
 "data": [
  ["Cl.N=C(N)N[C@H](COCCCCCCCCOc1ccc(OCc2ccccc2)cc1)Cc1ccccc1", "<3.13 µg/mL"],
  ["COc1cccc(COc2ccc(OCCCCCCCCNC(=O)[C@H](Cc3ccccc3)[N+](C)(C)C)cc2)c1.[I-]", "<0.20 µg/mL"]
]}

Respectfully, I request Minimal Inhibitory Concentration (MIC), B. subtilis for each entry included below.
1. C[N+](C)(C)C(Cc1ccccc1)C(=O)OCCCCCCCCOc1ccc(OCc2cccc(Cl)c2)cc1.[I-] (stereo not shown)
2. C[N+](C)(C)[C@@H](Cc1ccccc1)C(=O)NCCCCCCCCOc1ccc2c(c1)C(=O)CC(c1ccccc1)O2.[I-] (stereo partly shown)

Given back:
<3.13 µg/mL
<3.13 µg/mL

---

Biological target: NAD synthetase (Bacillus subtilis, UniProt P08164)
Sequence (P08164 whole entry): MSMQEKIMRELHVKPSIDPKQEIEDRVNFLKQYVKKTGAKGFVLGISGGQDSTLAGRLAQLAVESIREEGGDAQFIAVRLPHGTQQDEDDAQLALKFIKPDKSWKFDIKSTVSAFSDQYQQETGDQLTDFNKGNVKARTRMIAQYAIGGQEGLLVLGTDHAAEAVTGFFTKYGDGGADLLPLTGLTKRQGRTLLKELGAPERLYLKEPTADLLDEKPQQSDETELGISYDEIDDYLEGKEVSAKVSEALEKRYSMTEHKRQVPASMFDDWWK
Experiment: NAD synthetase coupled enzyme assay
Assay type: biochemical
Settings: NAD synthetase 2.0 μg/mL; 0.1 mM NaAD; 0.2 mM ATP; pH 8.5
measurementType: pIC50
Answers are plain numbers, as −log10 of the molar value.

Examples from the recorded data:
{"columns": ["compound", "pIC50"],
 "data": [
  ["CC(=O)Oc1ccc(C(=O)Oc2ccc(OCCCCCCCCOC(=O)C(Cc3ccccc3)[N+](C)(C)C)cc2)cc1 (stereo not shown)", 4.65],
  ["COc1cccc(COc2ccc(OCCCCCCCCOC(=O)C(Cc3ccccc3)[N+](C)(C)C)cc2)c1 (stereo not shown)", 4.84],
  ["CC(C)Oc1ccc(C(=O)Oc2ccc(OCCCCCCCCNC(=O)C(Cc3ccccc3)[N+](C)(C)C)cc2)cc1 (stereo not shown)", 4.54]
]}

Asked: Entry under review: C[n+]1cccc(C(=O)NCCCCCCCCOc2ccc(OC(=O)c3c(Cl)cccc3Cl)cc2)c1 . Reported pIC50?
Given back: 4.70

---

Target: NAD synthetase (Bacillus subtilis)
Assay: NAD synthetase coupled enzyme assay
Type: biochemical
Conditions: NAD synthetase 2.0 μg/mL; 0.1 mM NaAD; 0.2 mM ATP; pH 8.5
Excerpt: This Example illustrates the NAD synthetase enzyme inhibiting activity of some compounds of the present invention. [drawing 48] The coupled assay—production of NAD was monitored through conversion to NADH by alcohol dehydrogenase. [NADH] was monitored by 2 parallel methods: the change in absorbance at 340 nm, and fluorescence at 460 nm (excitation 320 nm). […] Controls were included for determining inhibitor background, precipitation, and ADH inhibition.
measurementType: pIC50
Answers are plain numbers, as −log10 of the molar value.

Examples from the recorded data:
{"columns": ["compound", "targetSystem", "pIC50"],
 "data": [
  ["C[N+](C)(C)c1ccc(CC(=O)OCCCCCCCCOc2ccc(OCc3cccc(Cl)c3)cc2)cc1", "NAD synthetase (Bacillus subtilis)", 4.77],
  ["C[N+](C)(C)C(Cc1ccccc1)C(=O)NCCCCCCCCOc1ccc(OC(=O)c2cc(Cl)cc(Cl)c2)cc1 (centres unmarked)", "NAD synthetase (Bacillus subtilis)", 4.58],
  ["C[N+](C)(C)c1ccc(CC(=O)NCCCCCCCCOc2ccc(OC(=O)c3cc(Cl)cc(Cl)c3)cc2)cc1", "NAD synthetase (Bacillus subtilis)", 4.63],
  ["C[N+](C)(C)C(Cc1ccccc1)C(=O)NCCCCCCCCOc1ccc(OC(=O)c2cc(F)c(F)cc2F)cc1 (centres unmarked)", "NAD synthetase (Bacillus subtilis)", 4.65],
  ["C[N+](C)(C)C(Cc1ccccc1)C(=O)NCCCCCCCCOc1ccc(OC(=O)c2ccc(Cl)cc2Cl)cc1 (centres unmarked)", "NAD synthetase (Bacillus subtilis)", 4.68]
]}

Respectfully, I request pIC50 for each entry included below.
1. C[N+](C)(C)c1ccc(CC(=O)NCCCCCCCCOc2ccc(OC(=O)c3c(Cl)cc(Cl)cc3Cl)cc2)cc1
2. CCC[N+]1([C@@H](Cc2ccccc2)C(=O)OCCCCCCCCOc2ccc(OCc3ccccc3)cc2)CCCC1
3. CC[N+]1([C@@H](Cc2ccccc2)C(=O)OCCCCCCCCOc2ccc(OCc3ccccc3)cc2)CCCC1
4. C[N+](C)(C)[C@@H](Cc1c[nH]c2ccccc12)C(=O)OCCCCCCCCOc1ccc(OCc2ccccc2)cc1
5. CC(C)(C)OC(=O)C(Cc1cn(CCCCCCCCOc2ccc(OCc3ccccc3)cc2)c2ccccc12)[N+](C)(C)C (centres unmarked)

Given back:
1. 4.74
2. 4.55
3. 4.67
4. 4.70
5. 4.90

---

Biological target: NAD synthetase (Bacillus subtilis)
Assay: NAD synthetase coupled enzyme assay
Format: biochemical
Conditions: NAD synthetase 2.0 μg/mL; 0.1 mM NaAD; 0.2 mM ATP; pH 8.5
measurementType: pIC50
One number for each entry, as −log10 of the molar value.

Examples from the recorded data:
{"columns": ["compound", "pIC50"],
 "data": [
  ["C[N+](C)(C)C(Cc1ccccc1)C(=O)OCCCCCCCCOc1ccc(OC(=O)c2ccc(C#N)cc2)cc1 (stereo not shown)", 4.73],
  ["C[N+](C)(C)C(Cc1ccccc1)C(=O)OCCCCCCCCOc1ccc(OC(=O)c2ccc(S(N)(=O)=O)cc2)cc1 (stereo not shown)", 4.46],
  ["C[n+]1cccc(C(=O)NCCCCCCCCOc2ccc(OC(=O)c3cc(F)c(F)c(F)c3)cc2)c1", 4.44]
]}

Read the next record carefully.
Asked: Entry under review: COc1ccccc1COc1ccc(OCCCCCCCCOC(=O)Cc2ccc([N+](C)(C)C)cc2)cc1 . Reported pIC50?
Given back: 4.44
